- Test system: HepG2 ATCC HB-8065
- Assay Comment: Human cell viability assay (CellTiter-Glo)
- Type: cell-based
- Condition Parameters: Homo sapiens; HepG2 cell viability, 24 h with compound, range 1-128 μg/mL
- Protocol: Compounds are assessed for potential non-specific cytotoxic effects against a human hepatic cell line (HepG2 ATCC HB-8065). […] Luminescence is measured on a BMG Omega plate reader. Data are analysed using GraphPad Prism software to determine the concentration of compound that inhibits cell viability by fifty percent (IC50).

Compound	IC50
COc1ccc2ccc(=O)n(CCN3CC4CN(c5ccc6c(n5)NC(=O)CO6)C(=O)OC4C3)c2n1 (stereo not drawn)	> 100 µg/mL
N#Cc1ccc2ccc(=O)n(CCCN3C[C@H]4CN(c5ccc6c(n5)NC(=O)CO6)C(=O)O[C@@H]4C3)c2c1 (relative stereo)	10 to 100 µg/mL
COc1ncc2ccc(=O)n(CCCN3CC4CN(c5ccc6c(n5)NC(=O)CO6)C(=O)OC4C3)c2n1 (stereo not drawn)	10 to 100 µg/mL
N#Cc1ccc2ccc(=O)n(CCN3CC4CN(c5ccc6c(n5)NC(=O)CO6)C(=O)O[C@H]4C3)c2c1 (stereo in doubt)	> 100 µg/mL
N#Cc1cccc(-c2cccc(CN3C[C@@H]4CN(c5ccc6c(n5)NC(=O)CO6)C(=O)O[C@H]4C3)c2O)n1 (relative stereo)	10 to 100 µg/mL
NCCCOc1ccc2ccc(=O)n(CCCN3CC4CN(c5ccc6c(n5)NC(=O)CO6)C(=O)OC4C3)c2n1 (stereo not drawn)	> 100 µg/mL
COc1ncc2ccc(=O)n(CCN3C[C@H]4CN(c5ccc6c(n5)NC(=O)CO6)C(=O)O[C@@H]4C3)c2n1 (relative stereo)	1 to 10 µg/mL
O=C1COc2ccc(N3C[C@H]4CN(CCn5c(=O)ccc6ccc(OCCO)nc65)C[C@@H]4OC3=O)nc2N1 (relative stereo)	> 100 µg/mL
NCCCOc1ccc2ccc(=O)n(CCN3C[C@@H]4CN(c5ccc6c(n5)NC(=O)CO6)C(=O)O[C@H]4C3)c2n1 (relative stereo)	> 100 µg/mL
COc1ccc2ccc(=O)n(CCN3C[C@@H]4CN(c5ccc6c(n5)NC(=O)CO6)C(=O)O[C@H]4C3)c2n1 (relative stereo)	> 100 µg/mL
N#Cc1ccc2ccc(=O)n(CCN3CC4CN(c5ccc6c(n5)NC(=O)CO6)C(=O)O[C@@H]4C3)c2c1 (stereo in doubt)	> 100 µg/mL
O=C1COc2ccc(N3C[C@@H]4CN(CCCn5c(=O)ccc6ccccc65)C[C@@H]4OC3=O)nc2N1 (relative stereo)	> 100 µg/mL

* * *

MIC values for the molecules below.
- Test system: Klebsiella pneumoniae ATCC 700603
- Assay Comment: MIC, broth microdilution (CLSI)
- Type: cell-based
- Condition Parameters: Klebsiella pneumoniae, ATCC700603; K. pneumoniae ATCC 700603; 16-20 h; mode of three experiments; read-out: MIC
Measurement Label: MIC

Molecule	Measurement Label	Meas Value
N#Cc1cccc(-c2cccc(CN3C[C@@H]4CN(c5ccc6c(n5)NC(=O)CO6)C(=O)O[C@H]4C3)c2O)n1 (relative stereo) [Compound 3]	MIC	> 100 µg/mL
NCCCOc1ccc2ccc(=O)n(CCCN3CC4CN(c5ccc6c(n5)NC(=O)CO6)C(=O)OC4C3)c2n1 (stereo not drawn) [Compound 6]	MIC	> 100 µg/mL
O=C1COc2ccc(N3C[C@H]4CN(CCn5c(=O)ccc6ccc(OCCO)nc65)C[C@@H]4OC3=O)nc2N1 (relative stereo) [Compound 5]	MIC	> 100 µg/mL
COc1ncc2ccc(=O)n(CCCN3CC4CN(c5ccc6c(n5)NC(=O)CO6)C(=O)OC4C3)c2n1 (stereo not drawn) [Compound 11]	MIC	10 to 100 µg/mL
NCCCOc1ccc2ccc(=O)n(CCN3C[C@@H]4CN(c5ccc6c(n5)NC(=O)CO6)C(=O)O[C@H]4C3)c2n1 (relative stereo) [Compound 8]	MIC	> 100 µg/mL
COc1ccc2ccc(=O)n(CCN3C[C@@H]4CN(c5ccc6c(n5)NC(=O)CO6)C(=O)O[C@H]4C3)c2n1 (relative stereo) [Compound 1]	MIC	10 to 100 µg/mL
COc1ccc2ccc(=O)n(CCN3CC4CN(c5ccc6c(n5)NC(=O)CO6)C(=O)OC4C3)c2n1 (stereo not drawn) [Compound 16]	MIC	10 to 100 µg/mL
O=C1COc2ccc(N3C[C@@H]4CN(CCCn5c(=O)ccc6ccccc65)C[C@@H]4OC3=O)nc2N1 (relative stereo) [Compound 4]	MIC	1 to 10 µg/mL
N#Cc1ccc2ccc(=O)n(CCN3CC4CN(c5ccc6c(n5)NC(=O)CO6)C(=O)O[C@@H]4C3)c2c1 (stereo in doubt) [Compound 12]	MIC	10 to 100 µg/mL
N#Cc1ccc2ccc(=O)n(CCN3CC4CN(c5ccc6c(n5)NC(=O)CO6)C(=O)O[C@H]4C3)c2c1 (stereo in doubt) [Compound 17]	MIC	10 to 100 µg/mL
N#Cc1ccc2ccc(=O)n(CCCN3C[C@H]4CN(c5ccc6c(n5)NC(=O)CO6)C(=O)O[C@@H]4C3)c2c1 (relative stereo) [Compound 14]	MIC	1 to 10 µg/mL
COc1ncc2ccc(=O)n(CCN3C[C@H]4CN(c5ccc6c(n5)NC(=O)CO6)C(=O)O[C@@H]4C3)c2n1 (relative stereo) [Compound 13]	MIC	10 to 100 µg/mL

* * *

- Tested on: Acinetobacter baumannii NCTC 13420
- Assay Comment: MIC, broth microdilution (CLSI)
- Format: cell-based
- Condition Parameters: Acinetobacter baumannii, NCTC13420; A. baumannii NCTC 13420; 16-20 h; mode of three experiments; read-out: MIC
MIC values for the compounds below.

Compound	MIC
N#Cc1cccc(-c2cccc(CN3C[C@@H]4CN(c5ccc6c(n5)NC(=O)CO6)C(=O)O[C@H]4C3)c2O)n1 (relative stereo) [Compound 3]	1 to 10 µg/mL
O=C1COc2ccc(N3C[C@@H]4CN(CCCn5c(=O)ccc6ccccc65)C[C@@H]4OC3=O)nc2N1 (relative stereo) [Compound 4]	< 1 µg/mL
COc1ccc2ccc(=O)n(CCN3CC4CN(c5ccc6c(n5)NC(=O)CO6)C(=O)OC4C3)c2n1 (stereo not drawn) [Compound 16]	< 1 µg/mL
COc1ccc2ccc(=O)n(CCN3C[C@@H]4CN(c5ccc6c(n5)NC(=O)CO6)C(=O)O[C@H]4C3)c2n1 (relative stereo) [Compound 1]	< 1 µg/mL
O=C1COc2ccc(N3C[C@H]4CN(CCn5c(=O)ccc6ccc(OCCO)nc65)C[C@@H]4OC3=O)nc2N1 (relative stereo) [Compound 5]	> 100 µg/mL
N#Cc1ccc2ccc(=O)n(CCCN3C[C@H]4CN(c5ccc6c(n5)NC(=O)CO6)C(=O)O[C@@H]4C3)c2c1 (relative stereo) [Compound 14]	< 1 µg/mL

* * *

- Test system: Pseudomonas aeruginosa ATCC 27853
- Assay Comment: MIC, broth microdilution (CLSI)
- Assay type: cell-based
- Condition Parameters: Pseudomonas aeruginosa, ATCC27853; P. aeruginosa ATCC 27853; 16-20 h; mode of three experiments; read-out: MIC
MIC values for the compounds below.
Measurement Label: MIC

Compound	Meas Value
N#Cc1ccc2ccc(=O)n(CCN3CC4CN(c5ccc6c(n5)NC(=O)CO6)C(=O)O[C@H]4C3)c2c1 (stereo in doubt)	1 to 10 µg/mL
NCCCOc1ccc2ccc(=O)n(CCCN3CC4CN(c5ccc6c(n5)NC(=O)CO6)C(=O)OC4C3)c2n1 (stereo not shown)	10 to 100 µg/mL
COc1ncc2ccc(=O)n(CCCN3CC4CN(c5ccc6c(n5)NC(=O)CO6)C(=O)OC4C3)c2n1 (stereo not shown)	10 to 100 µg/mL
COc1ccc2ccc(=O)n(CCN3C[C@@H]4CN(c5ccc6c(n5)NC(=O)CO6)C(=O)O[C@H]4C3)c2n1 (relative stereo)	1 to 10 µg/mL

* * *

MIC values for the compounds below.
- Tested on: Haemophilus influenzae ATCC 49247
- Assay Comment: MIC, broth microdilution (CLSI)
- Assay type: cell-based
- Condition Parameters: Haemophilus influenzae, ATCC49247; H. influenzae ATCC 49247; 16-20 h; mode of three experiments; read-out: MIC

Compound	MIC
COc1ccc2ccc(=O)n(CCN3C[C@@H]4CN(c5ccc6c(n5)NC(=O)CO6)C(=O)O[C@H]4C3)c2n1 (relative stereo)	< 1 µg/mL
N#Cc1ccc2ccc(=O)n(CCN3CC4CN(c5ccc6c(n5)NC(=O)CO6)C(=O)O[C@@H]4C3)c2c1 (stereo in doubt)	< 1 µg/mL
COc1ccc2ccc(=O)n(CCN3CC4CN(c5ccc6c(n5)NC(=O)CO6)C(=O)OC4C3)c2n1 (centres unmarked)	< 1 µg/mL
COc1ncc2ccc(=O)n(CCCN3CC4CN(c5ccc6c(n5)NC(=O)CO6)C(=O)OC4C3)c2n1 (centres unmarked)	< 1 µg/mL
O=C1COc2ccc(N3C[C@H]4CN(CCn5c(=O)ccc6ccc(OCCO)nc65)C[C@@H]4OC3=O)nc2N1 (relative stereo)	1 to 10 µg/mL
NCCCOc1ccc2ccc(=O)n(CCN3C[C@@H]4CN(c5ccc6c(n5)NC(=O)CO6)C(=O)O[C@H]4C3)c2n1 (relative stereo)	> 100 µg/mL
N#Cc1ccc2ccc(=O)n(CCN3CC4CN(c5ccc6c(n5)NC(=O)CO6)C(=O)O[C@H]4C3)c2c1 (stereo in doubt)	< 1 µg/mL
COc1ncc2ccc(=O)n(CCN3C[C@H]4CN(c5ccc6c(n5)NC(=O)CO6)C(=O)O[C@@H]4C3)c2n1 (relative stereo)	1 to 10 µg/mL
NCCCOc1ccc2ccc(=O)n(CCCN3CC4CN(c5ccc6c(n5)NC(=O)CO6)C(=O)OC4C3)c2n1 (centres unmarked)	> 100 µg/mL
N#Cc1cccc(-c2cccc(CN3C[C@@H]4CN(c5ccc6c(n5)NC(=O)CO6)C(=O)O[C@H]4C3)c2O)n1 (relative stereo)	1 to 10 µg/mL
N#Cc1ccc2ccc(=O)n(CCCN3C[C@H]4CN(c5ccc6c(n5)NC(=O)CO6)C(=O)O[C@@H]4C3)c2c1 (relative stereo)	< 1 µg/mL
